system: U-251; assay: Cytotoxicity against human U251 cells incubated for 24 hrs by MTT assay; format: functional, cell-based; settings: U-251, 24 h
parameter: IC50

Below, each entry is followed by its recorded IC50 result.
1. CC1=C2C3=C(CC[C@]2(C)[C@@H]([C@H]2CC[C@](CO)(C(C)C)OC2)C1)[C@@]1(C)CC[C@H](O)C(C)(C)[C@@H]1CC3	> 100 µM
2. C=C(CC[C@@H](C)[C@H]1CC[C@H]2C3=C(C(=O)C[C@]12C)[C@@]1(C)CC[C@@H](O)[C@H](O)[C@@H]1C[C@@H]3O)[C@@H](C)C(=O)O	> 100 µM
3. C=C(CC[C@@H](C)[C@H]1CC[C@H]2C3=C(C(=O)C[C@]12C)[C@@]1(C)CC[C@@H](O)[C@](C)(O)[C@@H]1C[C@@H]3O)[C@H](C)C(=O)O	> 100 µM

Noted for `C=C(CC[C@@H](C)[C@H]1CC[C@H]2C3=C(C(=O)C[C@]12C)[C@@]1(C)CC[C@@H](O)[C@](C)(O)[C@@H]1C[C@@H]3O)[C@@H](C)C(=O)O` : its IC50 reads > 100 µM

Record summary for C=C(CC[C@@H](C(=O)O)[C@H]1CC[C@@]2(C)C3=CC[C@H]4C(C)(C)[C@@H](O)CC[C@]4(C)C3=CC[C@]12C)C(C)C [DEHYDROEBURICOIC ACID] : reported IC50 = > 100 µM

----------
system: L02; assay: Cytotoxicity against human L02 cells incubated for 24 hrs by MTT assay; format: cell-based; details: l02, 24 h
parameter: Activity

Here's what some known entries look like.
1) C=C(CC[C@@H](C)[C@H]1CC[C@@]2(O)C3=C(C(=O)C[C@]12C)[C@@]1(C)CCC(=O)[C@@H](C)[C@@H]1CC3)C(C)C	Non-Toxic
2) C=C(CC[C@@H](C)[C@H]1CC[C@H]2C3=C(C(=O)[C@H](O)[C@]12C)[C@@]1(C)CC[C@@H](O)[C@@H](C)[C@@H]1CC3=O)[C@@H](C)C(=O)O	Non-Toxic
3) C=C(CC[C@@H](C)[C@H]1CC[C@H]2C3=CC[C@H]4[C@H](C)[C@@H](O)CC[C@]4(C)C3=C[C@@H](O)[C@]12C)C(C)C	Non-Toxic
4) C=C(CC[C@@H](C)[C@H]1CC[C@H]2C3=C(C(=O)C[C@]12C)[C@@]1(C)CCC(=O)[C@@H](C)[C@@H]1C[C@@H]3O)[C@@H](C)C(=O)O	Non-Toxic
5) C=C(CC[C@@H](C)[C@H]1CC[C@H]2C3=C(C(=O)[C@H](O)[C@]12C)[C@@]1(C)CC[C@@H](O)[C@@H](C)[C@@H]1CC3=O)[C@H](C)C(=O)O	Non-Toxic

The molecule identified as `C=C(CC[C@@H](C)[C@H]1CC[C@H]2C3=C(C(=O)C[C@]12C)[C@@]1(C)CCC(=O)[C@@H](C)[C@@H]1C[C@H]3O)C(C)C` registered its Activity at Non-Toxic

Sure, the documented Activity for `CC1=C2C3=C(CC[C@]2(C)[C@@H]([C@H]2CC[C@](CO)(C(C)C)OC2)C1)[C@@]1(C)CC[C@H](O)C(C)(C)[C@@H]1CC3` is Non-Toxic

Activity in this record for C=C(CC[C@@H](C(=O)O)[C@H]1C[C@H](O)[C@@]2(C)C3=C(CC[C@]12C)[C@@]1(C)CC[C@H](O)C(C)(C)[C@@H]1CC3)C(C)C [SULFURENIC ACID] : Non-Toxic
